// provenance: patent US20110028686A1

biological target: calmodulin (Sigma) (UniProt P62157 2-149); assay: fluorescence emission titration, fluorescein-labelled peptide + calmodulin (HEPES, KCl, CaCl2 buffer)
Ends that are not written are not given here.
readout-type: pKd
Would you please state pKd, meaning minus log10 of the concentration in mol/L, as a bare number?

binder	pKd
GPSQPTYPGDDAPVEDLIRFVGRLLAYFGDTINRYC(5‑iodoacetamidofluorescein)-NH2 (designed binder, also called p4121-flu (labelled form, by order and mass)) [p4099]	4.60

// next entry
Per the record, GQVGRQLAIIGDDINRYC-NH2 (not fully specified (residue 18), Labelled form used for Kd determinations carries an additional carboxy-terminal YC; The printed mass (1724) looks too small for residues 72-94; also called Bak BH3 peptide; Bak (72-94)) [Bak peptide] has pKd of 4.60
